Tested Target: Tyrosine-protein kinase JAK3 (Homo sapiens, UniProt P52333)
Sequence (P52333 whole entry): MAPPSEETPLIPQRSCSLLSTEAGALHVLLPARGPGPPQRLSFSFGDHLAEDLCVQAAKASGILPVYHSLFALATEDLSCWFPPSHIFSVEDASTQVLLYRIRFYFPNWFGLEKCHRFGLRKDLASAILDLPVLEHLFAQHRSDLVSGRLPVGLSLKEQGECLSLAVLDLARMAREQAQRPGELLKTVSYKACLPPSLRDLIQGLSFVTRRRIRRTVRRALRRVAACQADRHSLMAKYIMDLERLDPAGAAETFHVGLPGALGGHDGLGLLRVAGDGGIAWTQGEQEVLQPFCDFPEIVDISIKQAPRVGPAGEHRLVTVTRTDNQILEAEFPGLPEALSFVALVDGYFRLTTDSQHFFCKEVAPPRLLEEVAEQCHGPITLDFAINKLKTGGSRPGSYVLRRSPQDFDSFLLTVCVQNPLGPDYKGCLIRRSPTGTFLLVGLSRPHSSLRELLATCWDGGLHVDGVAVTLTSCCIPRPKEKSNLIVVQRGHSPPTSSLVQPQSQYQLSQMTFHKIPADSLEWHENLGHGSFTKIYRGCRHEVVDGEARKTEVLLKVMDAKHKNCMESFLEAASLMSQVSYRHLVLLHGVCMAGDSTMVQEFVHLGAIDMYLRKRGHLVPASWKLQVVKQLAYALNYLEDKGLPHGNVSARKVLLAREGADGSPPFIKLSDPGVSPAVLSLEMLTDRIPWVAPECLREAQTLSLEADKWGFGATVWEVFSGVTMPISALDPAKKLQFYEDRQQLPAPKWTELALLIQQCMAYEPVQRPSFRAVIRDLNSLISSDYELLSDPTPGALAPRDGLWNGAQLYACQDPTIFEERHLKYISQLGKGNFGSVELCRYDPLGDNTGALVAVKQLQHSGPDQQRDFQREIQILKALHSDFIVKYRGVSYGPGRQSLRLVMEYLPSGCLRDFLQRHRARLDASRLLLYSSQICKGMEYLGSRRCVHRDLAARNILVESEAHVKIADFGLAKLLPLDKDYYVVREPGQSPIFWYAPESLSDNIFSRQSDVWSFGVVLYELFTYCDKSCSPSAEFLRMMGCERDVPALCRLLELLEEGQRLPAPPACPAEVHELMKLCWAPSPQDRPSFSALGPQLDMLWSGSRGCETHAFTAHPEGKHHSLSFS
Collected literature values of IC50 measured for Tyrosine-protein kinase JAK3 (Homo sapiens, UniProt P52333).
Readout: IC50 (nM)

CC(CCCCCC(=O)NO)n1cc(-c2ncnc3[nH]ccc23)cn1 (centres undefined) = 436

1. CC1(C)[C@H](Nc2c(C(N)=O)cnn3cc(-c4ccncc4)cc23)CC[C@]1(C)N
2. C=CC(=O)Nc1cccc(Nc2nc(Nc3ccc(B(O)O)cc3)ncc2C(F)(F)F)c1
3. C=CC(=O)N1CCC[C@@H](n2nc(-c3ccc(NC(=O)c4ccc(-c5ccccc5)cc4)c4c3OCO4)c3c(N)ncnc32)C1
4. Cc1nc2cnc3ccc(-c4cc(Cl)c(O)c(Cl)c4)cc3c2n1[C@H]1CCCN(C)C1
q: Please produce an ascending ranking of these molecules based on IC50. Put the labels in the order asked and list them.
a: 2, 1, 4, 3
(2: 0.3 nM, 1: 6.7 nM, 4: 19.6 nM, 3: 120 nM)
